study target: Human Polθ polymerase domain (aa1820-2590) (Homo sapiens, UniProt O75417)
Construct: Human Polθ polymerase domain (aa1820-2590) was expressed in E. Coli; made in house; host or cells: E. coli
experimental details: Polθ Polymerase Domain WT KI Assay (PicoGreen)
Type: biochemical
experimental context: 100 nM DNA substrate, 0.156 nM Polθ, initial rates vs inhibitor concentration
Structures can show the parent of a compound that is named as a salt.
measure name: Ki (nM)

Would you please look over these solved cases?
{"compound": "Cc1cc(C(F)(F)F)cc(N2C(=O)C[C@@H]3CN(CC(O)CN4CCOCC4)c4c(Cl)cccc4N(C)C(=O)[C@H]32)n1 (single isomer, unassigned) [Example 133b]", "Ki [nM]": 2.46}
{"compound": "Cc1cc(C(F)(F)F)cc(N2C(=O)C[C@@H]3CN(CCN4CCN(S(C)(=O)=O)CC4)c4c(C)cccc4N(C)C(=O)[C@H]32)n1", "Ki [nM]": 0.598}
{"compound": "Cc1cc(C(F)(F)F)cc(N2C(=O)C[C@@H]3CN(C[C@@H]4CCNC4)c4c(Cl)cccc4N(C)C(=O)[C@H]32)n1 [Example 99, hydrochloride]", "Ki [nM]": 3.05}

I: CC(=O)N1CCN(CCN2C[C@H]3CC(=O)N(c4cc(C(F)(F)F)cc(C)n4)[C@@H]3C(=O)N(C)c3cccc(C)c32)CC1 [Example 55, hydrochloride]
II: Cc1cc(C(F)(F)F)cc(N2C(=O)C[C@@H]3CN(C[C@@H]4CCCCN4)c4c(Cl)cccc4N(C)C(=O)[C@H]32)n1 (racemic) [Example 105b]
III: Cc1cc(C(F)(F)F)cc(N2C(=O)C[C@@H]3CN(Cc4cc5n(n4)CCN(C)C5)c4c(C)cccc4N(C)C(=O)[C@H]32)n1
Put the items in order so that reported Ki rises from first to last. Present the labels in the sequence the task asks for.
III, I, II
(III: 0.237 nM, I: 0.891 nM, II: 2.98 nM)

----------
study target: Human Polθ polymerase domain (aa1820-2590) (Homo sapiens)
Where a name gives a salt, the structure may show the parent alone.
measure name: Ki (nM)

{"compound": "Cc1cc(C(F)(F)F)cc(N2C(=O)C[C@@H]3CN(CCN4CCN(C)[C@H](C)C4)c4c(C)cccc4N(C)C(=O)[C@H]32)n1 [Example 47, dihydrochloride]", "study target": "Human Polθ polymerase domain (aa1820-2590) (Homo sapiens)", "units label": "nM", "value measured": 0.605}
{"compound": "Cc1cc(C(F)(F)F)cc(N2C(=O)C[C@@H]3CN(CCN4CCC(O)CC4)c4c(Cl)cccc4N(C)C(=O)[C@H]32)n1", "study target": "Human Polθ polymerase domain (aa1820-2590) (Homo sapiens)", "units label": "nM", "value measured": 3.82}

I: Cc1cc(C(F)(F)F)cc(N2C(=O)C[C@@H]3CN(Cc4nc5n(c4F)CCN(C)C5)c4c(Cl)cccc4N(C)C(=O)[C@H]32)n1 [Example 81, hydrochloride]
II: Cc1cc(C(F)(F)F)cc(N2C(=O)C[C@@H]3CN(Cc4cn5c(n4)C(C)N(C)CC5)c4c(Cl)cccc4N(C)C(=O)[C@H]32)n1 (single isomer, unassigned) [Example 96a]
III: CCN1C(=O)[C@@H]2[C@H](CC(=O)N2c2cc(C(F)(F)F)cc(C)n2)CN(CCN2CCN(C)CC2)c2c(Cl)cccc21
IV: Cc1cc(C(F)(F)F)cc(N2C(=O)C[C@@H]3CN(CCN4CCOCC4)c4c(C)cccc4N(C)C(=O)[C@H]32)n1
Ranking field: Ki; order: falling. Present the labels in the sequence the task asks for.
III, II, I, IV

----------
Reported Ki values, Human Polθ polymerase domain (aa1820-2590) (Homo sapiens, UniProt O75417).
Structures can show the parent of a compound that is named as a salt.
measure name: Ki (nM)

{"compound": "Cc1cc(C(F)(F)F)cc(N2C(=O)C[C@@H]3CN(CC(C)O)c4c(F)cccc4N(C)C(=O)[C@H]32)n1 (mixture of isomers) [Example 130a]", "Ki [nM]": 11.8}
{"compound": "Cc1cc(C(F)(F)F)cc(N2C(=O)C[C@@H]3CN(CCN4CC[C@@H](O)C4)c4c(Cl)cccc4N(C)C(=O)[C@H]32)n1 [Example 31]", "Ki [nM]": 2.62}
{"compound": "Cc1cc(C(F)(F)F)cc(N2C(=O)C[C@@H]3CN(C[C@H]4COCCN4)c4c(Cl)cccc4N(C)C(=O)[C@H]32)n1 (racemic) [Example 108a]", "Ki [nM]": 2.17}
{"compound": "Cc1cc(C(F)(F)F)cc(N2C(=O)C[C@@H]3CN(CCN4CCN[C@@H](C)C4)c4c(C)cccc4N(C)C(=O)[C@H]32)n1 [Example 57, dihydrochloride]", "Ki [nM]": 0.564}
{"compound": "Cc1cc(C(F)(F)F)cc(N2C(=O)C[C@@H]3CN(c4cccnc4)c4c(F)cccc4N(C)C(=O)[C@H]32)n1 [Example 138]", "Ki [nM]": 645}
{"compound": "Cc1cc(C(F)(F)F)cc(N2C(=O)C[C@@H]3CN(CCOCCN(C)C)c4c(Cl)cccc4N(C)C(=O)[C@H]32)n1 [Example 89, hydrochloride]", "Ki [nM]": 1.85}

A: Cc1cc(C(F)(F)F)cc(N2C(=O)C[C@@H]3CN(CCN4CCN(C(=O)[C@@H](C)O)CC4)c4c(C)cccc4N(C)C(=O)[C@H]32)n1 [Example 51, hydrochloride]
B: Cc1cc(C(F)(F)F)cc(N2C(=O)C[C@@H]3CN(C[C@H]4COCCN4)c4c(C)cccc4N(C)C(=O)[C@H]32)n1 (racemic) [Example 112b]
Would you kindly point out which of A and B has the smaller Ki figure? Respond using the label that marks the chosen record.
A

----------
study target: Human Polθ polymerase domain (aa1820-2590) (Homo sapiens, UniProt O75417)
Sequence (O75417 1820-2590): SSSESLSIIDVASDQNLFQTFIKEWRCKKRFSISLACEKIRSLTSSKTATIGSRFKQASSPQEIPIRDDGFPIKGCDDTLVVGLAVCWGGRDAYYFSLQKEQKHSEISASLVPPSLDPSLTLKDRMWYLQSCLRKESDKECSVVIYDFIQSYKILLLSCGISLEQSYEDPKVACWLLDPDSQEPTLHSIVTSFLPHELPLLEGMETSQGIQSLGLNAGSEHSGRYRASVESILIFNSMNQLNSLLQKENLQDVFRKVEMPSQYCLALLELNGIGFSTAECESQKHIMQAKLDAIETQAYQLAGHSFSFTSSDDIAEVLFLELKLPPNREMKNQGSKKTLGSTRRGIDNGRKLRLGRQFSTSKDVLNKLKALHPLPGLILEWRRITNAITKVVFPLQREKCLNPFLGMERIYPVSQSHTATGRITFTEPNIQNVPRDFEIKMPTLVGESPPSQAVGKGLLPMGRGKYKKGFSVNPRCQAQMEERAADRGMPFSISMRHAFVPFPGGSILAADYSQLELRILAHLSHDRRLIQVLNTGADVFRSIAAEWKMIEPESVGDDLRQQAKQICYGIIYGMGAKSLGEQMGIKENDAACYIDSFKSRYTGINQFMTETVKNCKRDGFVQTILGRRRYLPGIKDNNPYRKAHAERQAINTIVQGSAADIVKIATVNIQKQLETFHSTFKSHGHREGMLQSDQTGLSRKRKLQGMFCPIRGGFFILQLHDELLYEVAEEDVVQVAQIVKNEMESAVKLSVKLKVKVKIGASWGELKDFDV
Counter-ions that a name gives are not always drawn.
measure name: Ki (nM)

Would you please look over these solved cases?
{"compound": "Cc1cc(C(F)(F)F)cc(N2C(=O)C[C@@H]3CN(CC4CCCCN4C)c4c(Cl)cccc4N(C)C(=O)[C@H]32)n1 (single isomer, unassigned) [Example 117a]", "measure name": "Ki", "value measured": 3.37}
{"compound": "Cc1cc(C(F)(F)F)cc(N2C(=O)C[C@@H]3CN(CCN4CCN5C(=O)COC[C@H]5C4)c4c(Cl)cccc4N(C)C(=O)[C@H]32)n1", "measure name": "Ki", "value measured": 3.05}
{"compound": "Cc1cc(C(F)(F)F)cc(N2C(=O)C[C@@H]3CN(C4CC(OCc5ccccc5)C4)c4c(F)cccc4N(C)C(=O)[C@H]32)n1 (single isomer, unassigned) [Example 92b]", "measure name": "Ki", "value measured": 14.7}

A: Cc1cc(C(F)(F)F)cc(N2C(=O)C[C@@H]3CN(CCN4C[C@H]5C[C@@H]4CN5)c4c(C)cccc4N(C)C(=O)[C@H]32)n1 [Example 58, dihydrochloride]
B: Cc1cc(C(F)(F)F)cc(N2C(=O)C[C@@H]3CN(CCN4CC[C@H](C(=O)N(C)C)C4)c4c(Cl)cccc4N(C)C(=O)[C@H]32)n1
C: CC(=O)N1CCN(CCN2C[C@H]3CC(=O)N(c4cc(C(F)(F)F)cc(C)n4)[C@@H]3C(=O)N(C)c3cccc(C)c32)[C@@H](C)C1
Ranking field: Ki; order: falling. Present the labels in the sequence the task asks for.
B, C, A
